Each recorded value in this set is attributed to paper PMC5723699.

measurement_notes: Part B repeat-dose
Assay type: in vivo, human
study_conditions: male, human, in vivo, po, 60 mg, AUC0‐tau, plasma, oral, 60 mg QD, Day 14; geometric mean (% CV)
value_type: AUC
In your response, put the unit directly after the numeric value.

Provide one value: measured AUC of CN1C(=O)[C@@H](NC(=O)c2nnc(Cc3ccccc3)[nH]2)COc2ccccc21 2590 ng·h/mL

====

measurement_notes: Part B repeat-dose
Format: in vivo, human
study_conditions: male, human, in vivo, po, 60 mg, AUC0‐tau, plasma, oral, 60 mg BID, Day 14; geometric mean (% CV)
value_type: AUC (ng·h/mL)
Numeric only. Scale: ng·h/mL

Output AUC of CN1C(=O)[C@@H](NC(=O)c2nnc(Cc3ccccc3)[nH]2)COc2ccccc21 [GSK2982772] 3100

====

measurement_notes: Part B repeat-dose
Assay type: in vivo, human
study_conditions: male, human, in vivo, po, 20 mg, AUC0‐tau, plasma, oral, 20 mg QD, Day 14; geometric mean (% CV)
value_type: AUC (ng·h/mL)
The reply should be a number in ng·h/mL, with the unit left off.

Provide one value: measured AUC of CN1C(=O)[C@@H](NC(=O)c2nnc(Cc3ccccc3)[nH]2)COc2ccccc21 1140

====

measurement_notes: Part B repeat-dose
Format: in vivo, human
study_conditions: male, human, in vivo, po, 20 mg, AUC0‐tau, plasma, oral, 20 mg QD, Day 1; geometric mean (% CV)
value_type: AUC (ng·h/mL)
// note: answer is a bare numeric in ng·h/mL

Indicate the recorded AUC value for this molecule: CN1C(=O)[C@@H](NC(=O)c2nnc(Cc3ccccc3)[nH]2)COc2ccccc21 1160

====

measurement_notes: Part B repeat-dose
Type: in vivo, human
study_conditions: male, human, in vivo, po, 60 mg, AUC0‐tau, plasma, oral, 60 mg BID, Day 1; geometric mean (% CV)
value_type: AUC (ng·h/mL)
Output spec: scalar in ng·h/mL, unitless text.

Supply reported AUC belonging to this compound: CN1C(=O)[C@@H](NC(=O)c2nnc(Cc3ccccc3)[nH]2)COc2ccccc21 [GSK2982772] 4330
